From: patent US8524755B2

system: Adrenergic α2 (ns); assay: Binding α2 (ns) (aa); parameters: species or system rat
The molecules listed here are annotated with their % Inhibition of Control Specific Binding @ 10 μM.
The answer is to be given in %; state only the numeric part.

Observe how each entry below is paired with its result.
CC1(C)C(=O)N(c2ccc(C#N)c(C(F)(F)F)c2)C(=S)N1c1ccc(C(N)=O)c(F)c1 [(MII)]: −9
CNC(=O)c1ccc(N2C(=O)N(c3ccc(C#N)c(C(F)(F)F)c3)C(=O)C2(C)C)cc1F [(MIV)]: −7
CC1(C)C(=O)N(c2ccc(C#N)c(C(F)(F)F)c2)C(=S)N1c1ccc(C(=O)O)c(F)c1 [(MI)]: −7

Next up:
Record CC1(C)C(=O)N(c2ccc(C#N)c(C(F)(F)F)c2)C(=O)N1c1ccc(C(N)=O)c(F)c1 [(MIII)] , field % Inhibition of Control Specific Binding @ 10 μM: −7

====

The compounds listed here are annotated with their inhibition at 10 µM.
target: dopamine transporter (h) (Homo sapiens); construct: expressed in transfected cells; host or cells: CHO cells; test: Binding dopamine transporter (h) (aa); settings: read-out: % Inhibition of Control Specific Binding @ 10 μM
Sequence (Q01959 whole entry): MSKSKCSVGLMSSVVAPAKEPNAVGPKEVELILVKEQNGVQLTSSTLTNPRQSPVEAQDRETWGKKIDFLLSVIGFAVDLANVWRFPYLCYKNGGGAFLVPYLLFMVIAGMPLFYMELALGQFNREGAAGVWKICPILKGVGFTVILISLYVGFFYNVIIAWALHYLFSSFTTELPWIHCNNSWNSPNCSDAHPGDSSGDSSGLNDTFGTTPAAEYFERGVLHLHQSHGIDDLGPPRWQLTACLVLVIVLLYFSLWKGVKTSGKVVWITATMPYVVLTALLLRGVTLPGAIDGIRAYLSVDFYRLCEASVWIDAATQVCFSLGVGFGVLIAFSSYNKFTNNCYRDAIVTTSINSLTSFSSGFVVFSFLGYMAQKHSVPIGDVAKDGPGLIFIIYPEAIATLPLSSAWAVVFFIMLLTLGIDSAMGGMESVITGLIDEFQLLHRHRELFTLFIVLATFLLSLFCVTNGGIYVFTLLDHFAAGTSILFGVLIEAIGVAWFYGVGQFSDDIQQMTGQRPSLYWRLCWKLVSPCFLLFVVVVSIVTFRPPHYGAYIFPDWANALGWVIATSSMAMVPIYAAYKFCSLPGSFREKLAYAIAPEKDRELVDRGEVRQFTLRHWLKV
The answer is to be given in %; state only the numeric part.

Observe how each entry below is paired with its result.
CNC(=O)c1ccc(N2C(=O)N(c3ccc(C#N)c(C(F)(F)F)c3)C(=O)C2(C)C)cc1F [(MIV)]: 7
CC1(C)C(=O)N(c2ccc(C#N)c(C(F)(F)F)c2)C(=S)N1c1ccc(C(N)=O)c(F)c1 [(MII)]: 23
CC1(C)C(=O)N(c2ccc(C#N)c(C(F)(F)F)c2)C(=O)N1c1ccc(C(N)=O)c(F)c1 [(MIII)]: 13

Record CC1(C)C(=O)N(c2ccc(C#N)c(C(F)(F)F)c2)C(=S)N1c1ccc(C(=O)O)c(F)c1 [(MI)] , field inhibition at 10 µM: 32

====

system: P2X; experiment: Binding P2X (ag); parameters: species or system rat
Measured parameter: % Inhibition of Control Specific Binding @ 10 μM (%)
The answer is to be given in %; state only the numeric part.

Observe how each entry below is paired with its result.
CC1(C)C(=O)N(c2ccc(C#N)c(C(F)(F)F)c2)C(=S)N1c1ccc(C(=O)O)c(F)c1: 4
CC1(C)C(=O)N(c2ccc(C#N)c(C(F)(F)F)c2)C(=O)N1c1ccc(C(N)=O)c(F)c1: 2
CNC(=O)c1ccc(N2C(=O)N(c3ccc(C#N)c(C(F)(F)F)c3)C(=O)C2(C)C)cc1F: 2

Next up:
Record CC1(C)C(=O)N(c2ccc(C#N)c(C(F)(F)F)c2)C(=S)N1c1ccc(C(N)=O)c(F)c1 , field % Inhibition of Control Specific Binding @ 10 μM: 4

====

molecular target: PNMT (Bos taurus, UniProt P10938); construct: bovine adrenal medulla; from tissue; host or cells: bovine adrenal medulla; experiment: Enzyme assay PNMT; type: biochemical, bovine; conditions: read-out: % Inhibition of Control Values @ 10 μM
Sequence (P10938 whole entry): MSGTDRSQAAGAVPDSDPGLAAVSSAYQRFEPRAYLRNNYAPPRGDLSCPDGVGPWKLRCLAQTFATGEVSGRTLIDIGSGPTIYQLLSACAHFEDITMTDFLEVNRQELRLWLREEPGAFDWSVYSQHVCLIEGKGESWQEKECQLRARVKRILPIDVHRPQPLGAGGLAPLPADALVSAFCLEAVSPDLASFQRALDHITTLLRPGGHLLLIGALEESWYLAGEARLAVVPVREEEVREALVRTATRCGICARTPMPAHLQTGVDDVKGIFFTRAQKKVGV
Measured parameter: inhibition at 10 µM
Show the value, then the unit it is measured in.

Noted inhibition at 10 µM for CC1(C)C(=O)N(c2ccc(C#N)c(C(F)(F)F)c2)C(=S)N1c1ccc(C(N)=O)c(F)c1 , tested on PNMT (Bos taurus, UniProt P10938): -4%

Noted inhibition at 10 µM for CNC(=O)c1ccc(N2C(=O)N(c3ccc(C#N)c(C(F)(F)F)c3)C(=O)C2(C)C)cc1F , tested on PNMT (Bos taurus, UniProt P10938): 14%

Noted inhibition at 10 µM for CC1(C)C(=O)N(c2ccc(C#N)c(C(F)(F)F)c2)C(=S)N1c1ccc(C(=O)O)c(F)c1 , tested on PNMT (Bos taurus, UniProt P10938): -6%

Noted inhibition at 10 µM for CC1(C)C(=O)N(c2ccc(C#N)c(C(F)(F)F)c2)C(=O)N1c1ccc(C(N)=O)c(F)c1 , tested on PNMT (Bos taurus, UniProt P10938): -2%
